So I've got a bunch of binders here, and I need their End 1st inj (RU) values.
molecular target: Human SARS-CoV-2_Wuhan S (SmT1) (SARS-CoV-2 (Wuhan), UniProt P0DTC2 14-1208); assay: tandem SPR, immobilized S, orientation 1: VHH alone
Numbers only, in RU.

State the recorded End 1st inj (RU) for every item in the following list.
1. NRCoV2-S2G4 VHH (VHH) VHH: QVQLVQSGGGLVQAGGSLTLSCAPSGSTFSGYATNWYRQAPGKQRELVATISSDGDKNYADSVKGRFTISRDNAKNTVYLQMNSLKPEDTAVYYCNKHWWTGDWWGQGTQVTVSS
2. NRCoV2-S2F3 VHH (VHH) VHH: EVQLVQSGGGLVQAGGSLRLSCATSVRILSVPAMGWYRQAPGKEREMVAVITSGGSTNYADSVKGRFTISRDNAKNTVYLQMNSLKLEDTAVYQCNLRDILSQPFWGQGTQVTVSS
3. NRCoV2-11 VHH (VHH) VHH: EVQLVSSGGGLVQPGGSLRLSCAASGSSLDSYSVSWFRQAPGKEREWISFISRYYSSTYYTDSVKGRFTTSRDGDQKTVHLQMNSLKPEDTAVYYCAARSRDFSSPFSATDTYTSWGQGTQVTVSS
4. NRCoV2-07 VHH (VHH) VHH: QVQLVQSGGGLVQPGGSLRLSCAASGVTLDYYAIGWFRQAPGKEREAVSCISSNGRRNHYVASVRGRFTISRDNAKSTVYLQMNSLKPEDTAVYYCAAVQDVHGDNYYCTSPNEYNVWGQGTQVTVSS
5. NRCoV2-SR13 VHH (VHH) VHH: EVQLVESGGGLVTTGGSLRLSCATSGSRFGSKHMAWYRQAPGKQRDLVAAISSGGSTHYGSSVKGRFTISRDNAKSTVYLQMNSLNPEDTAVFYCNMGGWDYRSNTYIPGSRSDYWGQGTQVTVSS
6. NRCoV2-14 VHH (VHH) VHH: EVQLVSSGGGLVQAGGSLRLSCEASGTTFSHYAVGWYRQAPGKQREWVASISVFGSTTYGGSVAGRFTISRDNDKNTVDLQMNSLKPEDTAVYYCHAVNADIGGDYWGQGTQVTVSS
7. NRCoV2-10 VHH (VHH) VHH: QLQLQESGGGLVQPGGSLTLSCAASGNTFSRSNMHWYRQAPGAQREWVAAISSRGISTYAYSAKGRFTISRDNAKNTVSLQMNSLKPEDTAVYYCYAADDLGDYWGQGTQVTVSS

a:
1: 21.3; 2: 50; 3: 21.8; 4: 19.1; 5: 36.9; 6: 26.9; 7: 9.6

State the recorded End 1st inj (RU) for every item in the following list.
1. NRCoV2-15 VHH (VHH) VHH: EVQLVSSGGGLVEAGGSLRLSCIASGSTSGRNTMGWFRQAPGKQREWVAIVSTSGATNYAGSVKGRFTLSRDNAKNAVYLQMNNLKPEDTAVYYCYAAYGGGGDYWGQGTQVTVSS
2. NRCoV2-06 VHH (VHH) VHH: EVQLVQSGGGLVQAGESLRLSCAASVSTFSSYAMGWYRQAPGKQRELVASIGFVGATYYIDSVKGRFTISRDNAKKTAYLQMNDLKPDDTAVYYCNARHYGGSEYWGQGTQVTVSS

a:
[10.1, 38.5]

State the recorded End 1st inj (RU) for every item in the following list.
1. NRCoV2-1d VHH (VHH) VHH: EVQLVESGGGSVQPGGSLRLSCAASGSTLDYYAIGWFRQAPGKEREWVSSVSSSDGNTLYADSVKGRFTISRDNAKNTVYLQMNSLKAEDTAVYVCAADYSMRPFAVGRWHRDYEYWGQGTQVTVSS
2. NRCoV2-SR03 VHH (VHH) VHH: AVQLVDSGGGLVQAGGSLRLSCAASGSIFSNNHMGWYRQAPGKQRELVAAISSGGKTNYADFAKGRFTISRDNAKNMVYLQMNSLKPEDTAVYYCNRGGWEYRSSYYIMGPHWGQGTQVTVSS

a:
26.3
18.5

State the recorded End 1st inj (RU) for every item in the following list.
1. NRCoV2-SR16 VHH (VHH) VHH: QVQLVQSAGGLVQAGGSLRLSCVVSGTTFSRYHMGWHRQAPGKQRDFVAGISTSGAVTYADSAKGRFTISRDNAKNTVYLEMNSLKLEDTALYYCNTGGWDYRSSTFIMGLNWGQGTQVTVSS
2. NRCoV2-05 VHH (VHH) VHH: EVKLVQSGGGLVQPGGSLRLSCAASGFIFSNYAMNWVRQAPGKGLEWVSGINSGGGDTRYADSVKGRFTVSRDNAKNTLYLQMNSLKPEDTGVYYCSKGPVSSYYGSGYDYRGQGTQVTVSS
3. NRCoV2-18 VHH (VHH) VHH: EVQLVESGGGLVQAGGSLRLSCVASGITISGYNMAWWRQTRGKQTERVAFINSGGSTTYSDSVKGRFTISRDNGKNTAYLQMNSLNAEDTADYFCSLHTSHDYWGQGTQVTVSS
4. NRCoV2-17 VHH (VHH) VHH: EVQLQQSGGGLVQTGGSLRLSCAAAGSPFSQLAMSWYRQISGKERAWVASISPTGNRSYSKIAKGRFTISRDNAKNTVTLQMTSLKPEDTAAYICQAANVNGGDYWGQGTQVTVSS

a:
37.4
36.9
12.6
16.7

The origin of these recorded values is patent US20240270826A1.
